Source listed as patent US20250355001A1.

# target_or_test_system: T1, full length human tau protein 2N4R (hT40) (human, UniProt P10636 1-758)
# T1 construct: recombinant; also called T441
# T1 sequence (P10636 other isoform, or with tags, fused parts or gaps limits assumed): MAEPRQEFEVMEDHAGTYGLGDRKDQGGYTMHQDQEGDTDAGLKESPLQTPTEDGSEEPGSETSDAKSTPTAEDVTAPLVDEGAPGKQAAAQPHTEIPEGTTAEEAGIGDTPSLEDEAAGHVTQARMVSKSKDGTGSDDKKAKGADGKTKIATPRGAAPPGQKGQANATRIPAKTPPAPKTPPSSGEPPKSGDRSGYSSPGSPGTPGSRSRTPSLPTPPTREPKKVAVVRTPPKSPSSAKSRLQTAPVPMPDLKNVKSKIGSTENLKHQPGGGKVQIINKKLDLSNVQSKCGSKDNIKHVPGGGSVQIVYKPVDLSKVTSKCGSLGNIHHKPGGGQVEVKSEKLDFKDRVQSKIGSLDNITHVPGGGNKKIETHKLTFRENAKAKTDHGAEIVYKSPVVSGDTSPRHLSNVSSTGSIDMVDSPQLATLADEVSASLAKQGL
# procedure_summary: SPR, scAb captured, tau analyte
In this section, each of the binders is paired with its reported koff.

# binder, koff [s⁻¹]
records = [
    ("CA4 scAb (scFv, not shown: small tags and cut ends, scAb) scFv: QVQLQESGPSLVKPSQTLSLTCTVSGFSLTSYSVYWVRQAPGQALEWISIMYASGRVDYNPALKSRLSITRDTSKSQFSLSLSSVTTEDTAVYYCTRGIENWGPGLLVTVSSEGKSSGASGESKVDDDIQVTQSPSSLSASLTERVSITCRTSQSVNNYLSWYQQKPGQAPKLLIYYATRLYTDVPSRFSGSGSGTDYTLTITSLEADDTATYYCLQYDSTPLAFGGGTNVEIK", 0.00165),
    ("S1E12 scAb (scFv, not shown: small tags and cut ends, scAb) scFv: QVQLQESGPSLVKPSQTLSLTCTVSGFSLGSNSVGWVRQAPGKAPEWVAGIDTDGEEGYNPALNSRLSITRDTSKSQVSLSLSSVTSEDTAVYYCGRSYRADGLAYGYVQAIDYWGPGLLVTVSSEGKSSGASGESKVDDRVVRTQPSSVSGSLGQRVSITCSGSFIGISSVGWFQQLPGSGLRTIIVASDGRPSGVPDRFSMSKSGNTATLTISSLQAEDEADYFCGSSDRTQYTGVFGSGTRLTVLG", 0.000319),
    ("3aG3 scAb (scFv, not shown: small tags and cut ends, scAb) scFv: QVQLQESGPSLVKPSQTLSLTCTVSGFSLSSNGVGWVRQAPGKVPEWVGDISSSGKAYANPALKSRLSITRDTAKTQVFLSLSSVTTEDTAVYYCVRCRDGGVSYGYDIDYWGPGLLVTVSSEGKSSGASGESKVDDQAVLTQPPSVSGSPGQRVSITCSGSSSNIGGGNYLSWFQQVPGSAPKLLIYGATSRASGVPDRFSGSRSGNTATLTISSLQAEDEADYYCASFDTSSGGIFGAGTRLTVLG", 0.000387),
    ("CE3 scAb (scFv, not shown: small tags and cut ends, scAb) scFv: QVRLQESGPSLVKPSQTLSVTCTVSGFSLISNAVGWVRQAPGKVPESLAGCSSDGKCYYNSALKSRLDITRDTSKNQISLSLSSVTTDDAAVYYCTRGYYPVYGYDYLGTIDYWGPGLLVTVSSEGKSSGASGESKVDDQAVLTQPSSVSGSLGQRVSITCSGSSSNVGRNDVAWFQQLPGSGLRTIIYGTTSRPSGIPDRFSGSKSGVTATLTIDSLQAEDEADYFCASGDSSAINDIFGSGTRLTVLG", 0.000662),
    ("CB7 scAb (scFv, not shown: small tags and cut ends, scAb) scFv: QVQLQESGPSLVKPSQTLSLTCTVSGFSLTNYRVGWVRQAPGKALEWVSNIRSGGTTWYNPALKSRLSITADTSKSQVSLSLSSVTTEDTAVYYCARDSSGDLYAYDYWGPGLLVTVSSEGKSSGASGESKVDDQAVLTQPSSVSRSLGQSVSMTCSGSSSNVGYGNYMAWFQQVPGSAPKLLIYGATSRASGVPDRFSGSRSGNTATLTISSLQAEDEADYYCASYDSTSGGVFGSGTRLTVLG", 0.000694),
]
